# experimentNotes: Cytotoxicity against human NCM460 cells assessed as inhibition rate of cell growth at 100 uM incubated for 24 hrs by CCK8 assay relative to control
# Assay type: toxicity, cell-based
This section presents compounds with their documented inhibition at 24 h, 100 µM values.
Reply numerically in %, unit not repeated.

Take a look at these entries with their results.
testSmiles: COc1cc(C(C)C)c(Oc2cnc(N)nc2N)cc1-c1ccc(Cl)cc1
inhibition at 24 h, 100 µM / %: 69.1

testSmiles: COc1cc(C(C)C)c(Oc2cnc(N)nc2N)cc1-c1ccc(Cl)c(Cl)c1
inhibition at 24 h, 100 µM / %: 34.1

testSmiles: COc1cc(C(C)C)c(Oc2cnc(N)nc2N)cc1-c1cc(C(F)(F)F)cc(C(F)(F)F)c1
inhibition at 24 h, 100 µM / %: 64.2

In the following, a different compound is considered.
Reported inhibition at 24 h, 100 µM for COc1cc(C(C)C)c(Oc2cnc(N)nc2N)cc1-c1ccc2c(c1)OCCO2 : what is it?
64.7

These measurements were taken from ChEMBL document CHEMBL5528082.
